Values from the array DNA melting data of Ke et al. (doi:10.1101/2024.01.08.574731)

Assay: melting temperature; fluorescence melt of hairpins on a sequencing array, two-state fit, raised by 9.35 °C to match UV melts
Conditions: sodium 0.088 M
PROPERTY LABEL: Tm (°C)

[[record]]
seq_string = "GCTTCGCGAAAGCATAGC (((..((....))..)))"
measurement_unit = "°C"
obs_value = 36.3

[[record]]
seq_string = "GGCTTAACGAAAGTTGCC (((..(((....))))))"
measurement_unit = "°C"
obs_value = 45.5

[[record]]
seq_string = "GCCCGGGGAAACCCGGAC (.(((((....))))).)"
measurement_unit = "°C"
obs_value = 51.3

[[record]]
seq_string = "GGCTTGCGAAAGCAGGCC (((.(((....))).)))"
measurement_unit = "°C"
obs_value = 69.2

[[record]]
seq_string = "GATCCCCCCAGGGATC ((((((....))))))"
measurement_unit = "°C"
obs_value = 63.3


###

Each record here notes measured Tm.
Assay: melting temperature; fluorescence melt of hairpins on a sequencing array, two-state fit, raised by 9.35 °C to match UV melts
Settings: sodium 0.088 M
PROPERTY LABEL: Tm (°C)

[[record]]
seq_string = "GCCCCGCGAAAGCCGAGC ((.(.((....)).).))"
property_label = "Tm"
obs_value = 32.1

[[record]]
seq_string = "GATCCGCTACGGATC ((((((...))))))"
property_label = "Tm"
obs_value = 57.2

[[record]]
seq_string = "GATCTGCACACAGATC ((((((....))))))"
property_label = "Tm"
obs_value = 51.6

[[record]]
seq_string = "GATCACTTCGGTGATC ((((((....))))))"
property_label = "Tm"
obs_value = 57.4

[[record]]
seq_string = "GACCACGAAAGTGTGTC ((((((....))).)))"
property_label = "Tm"
obs_value = 52.9

[[record]]
seq_string = "GTACTCGAAAGAGTATAC ((((((....)))..)))"
property_label = "Tm"
obs_value = 39.3

[[record]]
seq_string = "GATCGCTTCCGCGATC ((((((....))))))"
property_label = "Tm"
obs_value = 67.2

[[record]]
seq_string = "GCTAATCGAAAGATGAGC (((.(((....))).)))"
property_label = "Tm"
obs_value = 47.8

[[record]]
seq_string = "GCTCCCGAAAGGGGAAGC ((((((....)))..)))"
property_label = "Tm"
obs_value = 50


###

Experiment: folding enthalpy; higher = less favourable; fluorescence melt of hairpins on a sequencing array, two-state fit
Details: sodium 0.088 M
Record y whenever folding enthalpy is at -40 kcal/mol or higher; record n when lower.

[[record]]
seq_string = "GGGCTCACGAAAGTGCCC (((..(((....))))))"
cat = "y"

[[record]]
seq_string = "GCTCTGCGAAAGCATAGC (((.(((....))).)))"
cat = "n"

[[record]]
seq_string = "GTGTGAGGAAACTTACAC ((((.((....)).))))"
cat = "y"

[[record]]
seq_string = "GCTTACCGAAAGGTTAGC (((.(((....))).)))"
cat = "y"

[[record]]
seq_string = "GCTATCGAAAGATGAAGC ((((((....)))..)))"
cat = "y"

[[record]]
seq_string = "GCAGATCCGAAAGGATGC (((..(((....))))))"
cat = "y"

[[record]]
seq_string = "GTCGAGGAAACTCGAC ((((((....))))))"
cat = "n"

[[record]]
seq_string = "GATCGAGGGGTCGATC ((((((....))))))"
cat = "y"

[[record]]
seq_string = "GTCAGCGAAAGCTATGAC ((((((....)))..)))"
cat = "y"

[[record]]
seq_string = "GTGGTCGGAAACGGTCAC (((..((....))..)))"
cat = "y"

[[record]]
seq_string = "GCCAACGAAAGTTACGGC ((((((....)))..)))"
cat = "y"

[[record]]
seq_string = "GACCACGAAAGTGAGGTC ((((((....)))..)))"
cat = "y"

[[record]]
seq_string = "GATCCAACCTTGGATC ((((((....))))))"
cat = "n"

[[record]]
seq_string = "GCGATATTCGC ((((...))))"
cat = "y"

[[record]]
seq_string = "GTCAACCCGAAAGGGGAC (((..(((....))))))"
cat = "y"

[[record]]
seq_string = "GGGTACGAAAGTAATCCC ((((((....)))..)))"
cat = "y"

[[record]]
seq_string = "GATCAGATAGCTGATC ((((((....))))))"
cat = "y"


###

Experiment: melting temperature; fluorescence melt of hairpins on a sequencing array, two-state fit, raised by 9.35 °C to match UV melts
Settings: sodium 0.088 M
Class definitions on Tm: lo = under 40 °C, med = from 40 °C up to 50 °C, hi = 50 °C and over

[[record]]
seq_string = "GTTGTCCGAAAGGAAAC (((.(((....))))))"
cat = "lo"

[[record]]
seq_string = "GGTCTCGAAAGAGTAACC ((((((....)))..)))"
cat = "lo"

[[record]]
seq_string = "GCGTAGCGAAAGCATCGC (((..((....))..)))"
cat = "hi"

[[record]]
seq_string = "GCGGATTCCCGC ((((....))))"
cat = "hi"

[[record]]
seq_string = "GCGAAAGGAAACTCTCGC ((((.((....)).))))"
cat = "lo"

[[record]]
seq_string = "GCACATGAAAATGTGC ((((((....))))))"
cat = "hi"

[[record]]
seq_string = "GGATACCCGAAAGGGTCC (((..(((....))))))"
cat = "lo"

[[record]]
seq_string = "CGCGGGAAAGCCCGCG ((((((....))))))"
cat = "hi"

[[record]]
seq_string = "GCCTCTGGAAACAGAAGC ((.((((....)))).))"
cat = "lo"

[[record]]
seq_string = "GCGAGGCGAAAGCATAGC ((.(.((....)).).))"
cat = "hi"

[[record]]
seq_string = "GCCTAGCGAAAGCTTCGC ((..(((....)))..))"
cat = "med"

[[record]]
seq_string = "CGTGCGGAAACGCTGACG ((((((....)))..)))"
cat = "med"

[[record]]
seq_string = "GACTTGGGAAACCAAGTC (((((((....)))))))"
cat = "hi"

[[record]]
seq_string = "GCGCGCGAAAGCGGACGC ((((((....)))..)))"
cat = "hi"

[[record]]
seq_string = "CGTCGCGGAAACGCCACG (((.(((....))).)))"
cat = "med"

[[record]]
seq_string = "GTAACCCGAAAGGGGTAC (((.(((....))).)))"
cat = "hi"

[[record]]
seq_string = "GTCCGCGAAAGCGCCGAC ((((((....)))..)))"
cat = "lo"

[[record]]
seq_string = "GATCTAAGTCTAGATC ((((((....))))))"
cat = "lo"

[[record]]
seq_string = "GATCGTACATACGATC ((((((....))))))"
cat = "hi"

[[record]]
seq_string = "CGCGGACTACTCCGCG ((((((....))))))"
cat = "hi"

[[record]]
seq_string = "GACGATGGAAACACCATC ((.(.((....)).).))"
cat = "lo"

[[record]]
seq_string = "GCAACGCGAAAGCGTGC (((.(((....))))))"
cat = "hi"

[[record]]
seq_string = "GCAGTACGAAAGTAGTGC (((.(((....))).)))"
cat = "hi"

[[record]]
seq_string = "GATCCCAACAGGGATC ((((((....))))))"
cat = "hi"

[[record]]
seq_string = "GCATAACCGAAAGGTTGC (((..(((....))))))"
cat = "med"

[[record]]
seq_string = "GGTTGAACGAAAGTTACC (((..(((....))))))"
cat = "lo"

[[record]]
seq_string = "GGTGGGGCGAAAGCCACC (((..(((....))))))"
cat = "hi"

[[record]]
seq_string = "GCTATCGAAAGATAGC ((((((....))))))"
cat = "hi"

[[record]]
seq_string = "GTACACCGAAAGGTTTAC (((.(((....))).)))"
cat = "med"

[[record]]
seq_string = "GGGATCGAAAGATTTCCC ((((((....)))..)))"
cat = "lo"

[[record]]
seq_string = "GCGTCGCCACGC ((((....))))"
cat = "hi"

[[record]]
seq_string = "GCGGTTACGAAAGTACGC (((..(((....))))))"
cat = "med"

[[record]]
seq_string = "GATGGGCCGAAAGGCATC (((..(((....))))))"
cat = "lo"

[[record]]
seq_string = "GCGTCCTCGAAAGAGCGC (((..(((....))))))"
cat = "med"

[[record]]
seq_string = "GCATACGAAAGTATATGC ((((((....)))..)))"
cat = "med"

[[record]]
seq_string = "GCTAATCCGAAAGGAAGC (((..(((....))))))"
cat = "lo"

[[record]]
seq_string = "GCACGCGGAAACGCACGC ((..(((....)))..))"
cat = "med"

[[record]]
seq_string = "GGCGATTCGAAAGAAGCC (((..(((....))))))"
cat = "med"

